MEASUREMENT_TARGET: T1, Dimeric monkey CD48-mFc (monkey)
T1 construct: Soluble monkey CD48 with a C-terminal Fc fusion [mFc]; the whole entry is the construct
T1 chain: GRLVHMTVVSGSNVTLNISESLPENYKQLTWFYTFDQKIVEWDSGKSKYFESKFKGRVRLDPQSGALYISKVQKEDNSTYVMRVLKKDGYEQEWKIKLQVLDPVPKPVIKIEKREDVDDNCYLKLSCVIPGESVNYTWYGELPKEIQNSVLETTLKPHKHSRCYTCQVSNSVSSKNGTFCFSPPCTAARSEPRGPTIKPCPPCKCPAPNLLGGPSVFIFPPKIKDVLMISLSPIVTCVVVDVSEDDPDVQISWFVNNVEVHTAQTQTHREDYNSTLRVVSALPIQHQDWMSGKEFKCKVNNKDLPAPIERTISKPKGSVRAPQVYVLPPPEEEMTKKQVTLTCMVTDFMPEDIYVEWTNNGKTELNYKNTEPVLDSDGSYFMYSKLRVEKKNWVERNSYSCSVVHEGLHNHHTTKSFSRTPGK
PROTOCOL_DETAILS: SPR (Biacore), antibody captured by anti-Fc, CD48 in solution, 37 C
Below is a list of entries, each paired with its recorded T½ value.
// return numeric value only (unit: h, not printed)

Known T½ results, listed for orientation:
| BINDER | RESULT_UNIT | T½ |
| --- | --- | --- |
| H4H1707N (antibody, V domains shown, Human IgG4 Fc (H4H)) VH: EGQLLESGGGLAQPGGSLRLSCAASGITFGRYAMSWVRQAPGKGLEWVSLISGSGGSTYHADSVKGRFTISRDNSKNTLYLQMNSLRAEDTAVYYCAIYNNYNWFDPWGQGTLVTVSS VL: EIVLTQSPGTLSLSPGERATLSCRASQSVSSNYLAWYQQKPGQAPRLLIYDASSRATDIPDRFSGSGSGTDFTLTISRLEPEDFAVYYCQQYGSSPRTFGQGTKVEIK | h | 0.0333 |
| H4H1778P (antibody, human IgG4, V domains shown, Human IgG4 Fc (H4H)) VH: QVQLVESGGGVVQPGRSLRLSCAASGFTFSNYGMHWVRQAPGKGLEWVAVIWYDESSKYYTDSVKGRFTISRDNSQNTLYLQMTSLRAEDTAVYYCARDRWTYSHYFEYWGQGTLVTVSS VL: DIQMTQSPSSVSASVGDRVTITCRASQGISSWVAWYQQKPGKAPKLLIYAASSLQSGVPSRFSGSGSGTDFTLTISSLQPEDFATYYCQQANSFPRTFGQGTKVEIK | h | 5.35 |

Name the recorded T½ of the binder listed here: H4H1781P (antibody, human IgG4, V domains shown, Human IgG4 Fc (H4H)) VH: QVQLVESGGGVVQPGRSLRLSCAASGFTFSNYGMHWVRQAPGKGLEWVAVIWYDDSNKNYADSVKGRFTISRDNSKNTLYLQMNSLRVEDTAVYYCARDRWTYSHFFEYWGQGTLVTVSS VL: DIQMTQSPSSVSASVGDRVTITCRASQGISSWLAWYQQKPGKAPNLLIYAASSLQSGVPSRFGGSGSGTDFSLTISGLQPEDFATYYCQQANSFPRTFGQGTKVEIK
2.92

These data points were gathered from patent US20130230533A1.
